Catalogue of compounds with associated Dmax
- measurement_target: ERα (Homo sapiens, UniProt P03372)
- Construct: endogenous in cells; host or cells: MCF-7
- Sequence (P03372 1-595): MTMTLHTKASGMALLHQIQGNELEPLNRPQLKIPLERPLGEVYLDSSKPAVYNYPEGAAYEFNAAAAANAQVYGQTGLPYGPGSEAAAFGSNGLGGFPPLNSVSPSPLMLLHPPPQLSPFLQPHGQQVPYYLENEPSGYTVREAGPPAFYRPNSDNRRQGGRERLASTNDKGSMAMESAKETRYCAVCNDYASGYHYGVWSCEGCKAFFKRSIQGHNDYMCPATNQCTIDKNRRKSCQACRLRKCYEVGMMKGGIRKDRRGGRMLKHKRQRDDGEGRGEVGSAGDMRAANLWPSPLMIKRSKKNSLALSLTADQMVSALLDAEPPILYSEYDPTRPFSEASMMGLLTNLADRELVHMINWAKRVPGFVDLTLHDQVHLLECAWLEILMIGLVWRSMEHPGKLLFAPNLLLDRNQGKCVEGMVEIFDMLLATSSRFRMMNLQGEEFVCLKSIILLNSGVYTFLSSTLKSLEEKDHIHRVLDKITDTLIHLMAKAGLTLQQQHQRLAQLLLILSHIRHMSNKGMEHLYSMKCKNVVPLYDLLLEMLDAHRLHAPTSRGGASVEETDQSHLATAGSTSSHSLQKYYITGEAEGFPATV
- assay_procedure: ER degradation in MCF-7 cells (Western blot)
- Type: cell-based
- condition_set: MCF7, Maximal ER degradation, read-out: Dmax

Observe how each entry below is paired with its result.
| compound | Dmax |
| --- | --- |
| CC/C(=C(/c1ccc(B(O)O)cc1)c1ccc(N2CCN(CCC3CCN(c4ccc5c(c4)C(=O)N(C4CCC(=O)NC4=O)C5=O)CC3)CC2)cc1)c1ccccc1 (stereo not drawn) | > 90% |
| CC/C(=C(\c1ccc(B(O)O)cc1)c1ccc(N2CCC(CCN3CCN(c4ccc5c(c4)CN(C4CCC(=O)NC4=O)C5=O)CC3)CC2)cc1)c1ccccc1 (stereo not drawn) | > 90% |

Now for another entry.
Fill blank: measured Dmax of the compound CC/C(=C(/c1ccc(B(O)O)cc1)c1ccc(N2CCN(CCN3CCN(c4ccc5c(c4)C(=O)N(C4CCC(=O)NC4=O)C5=O)CC3)CC2)cc1)c1ccccc1 (stereo not drawn) is ____. > 90%

----------
- measurement_target: ERα (Homo sapiens)
- Construct: endogenous in cells; host or cells: MCF-7
- assay_procedure: ER degradation in MCF-7 cells (Western blot)
- Format: cell-based
- condition_set: MCF7, Maximal ER degradation, read-out: Dmax
Catalogue of molecules with associated Dmax

Observe how each entry below is paired with its result.
| molecule | Dmax |
| --- | --- |
| CC/C(=C(\c1ccc(O)cc1)c1ccc(OCCN2CCN(C(=O)N3CCN(c4ccc5c(c4)CN(C4CCC(=O)NC4=O)C5=O)CC3)CC2)cc1)c1ccccc1 (stereo not drawn) | > 90% |
| CC/C(=C(\c1ccc(B(O)O)cc1)c1ccc(C2CCN(CCCN3CCN(c4ccc5c(c4)C(=O)N(C4CCC(=O)NC4=O)C5=O)CC3)CC2)cc1)c1ccccc1 (stereo not drawn) | > 90% |

Now for another entry.
Fill blank: measured Dmax of the molecule CC/C(=C(/c1ccc(O)cc1)c1ccc(OCCN2CCN(C(=O)N3CCN(c4ccc5c(c4)CN(C4CCC(=O)NC4=O)C5=O)CC3)CC2)cc1)c1ccccc1 (stereo not drawn) is ____. > 90%

----------
Catalogue of molecules with associated IC50
- measurement_target: ER (Homo sapiens, UniProt P03372)
- Construct: endogenous in cells; host or cells: T47d-kb-Luc (T47D stably transfected with a luciferase reporter gene only)
- assay_procedure: ER antagonism (T47D ERE luciferase), T47d-kb-Luc cells
- Format: cell-based
- condition_set: read-out: IC50 (ER antagonistm)

Observe how each entry below is paired with its result.
| molecule | measurement_type | result |
| --- | --- | --- |
| CC/C(=C(\c1ccc(OCCN2CCN(CC3CCN(c4ccc5c(c4)CN([C@H]4CCC(=O)NC4=O)C5=O)CC3)CC2)cc1)c1ccc(B(O)O)cc1)c1ccccc1 [Compound 71] | IC50 | < 10 nM |
| CC/C(=C(/c1ccc(O)cc1)c1ccc(N2CCN(C(=O)N3CCC(CN4CCN(c5ccc6c(c5)CN(C5CCC(=O)NC5=O)C6=O)CC4)CC3)CC2)cc1)c1ccccc1 (centres unmarked) [Compound 115] | IC50 | < 10 nM |
| CC/C(=C(\c1ccc(OCCN2CCN(C(=O)N3CCN(c4ccc5c(c4)CN([C@@H]4CCC(=O)NC4=O)C5=O)CC3)CC2)cc1)c1ccc(B(O)O)cc1)c1ccccc1 [Compound 88] | IC50 | < 10 nM |
| CC/C(=C(\c1ccc(OCCN2CCC(CN3CCN(c4ccc5c(c4)C(=O)N(C4CCC(=O)NC4=O)C5=O)CC3)CC2)cc1)c1ccc(B(O)O)cc1)c1ccccc1 (centres unmarked) [Compound 20] | IC50 | > 50 nM |
| CC/C(=C(\c1ccc(B(O)O)cc1)c1ccc(N2CCN(CCN3CCN(c4ccc5c(c4)C(=O)N(C4CCC(=O)NC4=O)C5=O)CC3)CC2)cc1)c1ccccc1 (centres unmarked) [Compound 59] | IC50 | 10 to 50 nM |
| CC/C(=C(\c1ccc(B(O)O)cc1)c1ccc(C2CCN(CCCN3CCN(c4ccc5c(c4)C(=O)N(C4CCC(=O)NC4=O)C5=O)CC3)CC2)cc1)c1ccccc1 (centres unmarked) [Compound 47] | IC50 | 10 to 50 nM |
| CC/C(=C(\c1ccc(B(O)O)cc1)c1ccc(N2CCC(CCCN3CCN(c4ccc5c(c4)C(=O)N(C4CCC(=O)NC4=O)C5=O)CC3)CC2)cc1)c1ccccc1 (centres unmarked) [Compound 51] | IC50 | 10 to 50 nM |
| CC/C(=C(/c1ccc(B(O)O)cc1)c1ccc(N2CCC(CCCN3CCN(c4ccc5c(c4)CN(C4CCC(=O)NC4=O)C5=O)CC3)CC2)cc1)c1ccccc1 (centres unmarked) [Compound 54] | IC50 | < 10 nM |
| CC/C(=C(\c1ccc(B(O)O)cc1)c1ccc(N2CCC(CNC3CCN(c4ccc5c(c4)CN(C4CCC(=O)NC4=O)C5=O)CC3)CC2)cc1)c1ccccc1 (centres unmarked) [Compound 11] | IC50 | < 10 nM |
| CC/C(=C(/c1ccc(OCCN2CCN(C(=O)N3CCN(c4ccc5c(c4)CN(C4CCC(=O)NC4=O)C5=O)CC3)CC2)cc1)c1ccc(B(O)O)cc1)c1ccccc1 (centres unmarked) [Compound 83] | IC50 | < 10 nM |

Now for another entry.
Fill blank: measured IC50 of the molecule CC/C(=C(\c1ccc(B(O)O)cc1)c1ccc(C2CCN(CCCN3CCN(c4ccc5c(c4)CN(C4CCC(=O)NC4=O)C5=O)CC3)CC2)cc1)c1ccccc1 (centres unmarked) [Compound 49] is ____. < 10 nM

----------
- measurement_target: ERα (Homo sapiens, UniProt P03372)
- Construct: endogenous in cells; host or cells: MCF-7
- Sequence (P03372 1-595): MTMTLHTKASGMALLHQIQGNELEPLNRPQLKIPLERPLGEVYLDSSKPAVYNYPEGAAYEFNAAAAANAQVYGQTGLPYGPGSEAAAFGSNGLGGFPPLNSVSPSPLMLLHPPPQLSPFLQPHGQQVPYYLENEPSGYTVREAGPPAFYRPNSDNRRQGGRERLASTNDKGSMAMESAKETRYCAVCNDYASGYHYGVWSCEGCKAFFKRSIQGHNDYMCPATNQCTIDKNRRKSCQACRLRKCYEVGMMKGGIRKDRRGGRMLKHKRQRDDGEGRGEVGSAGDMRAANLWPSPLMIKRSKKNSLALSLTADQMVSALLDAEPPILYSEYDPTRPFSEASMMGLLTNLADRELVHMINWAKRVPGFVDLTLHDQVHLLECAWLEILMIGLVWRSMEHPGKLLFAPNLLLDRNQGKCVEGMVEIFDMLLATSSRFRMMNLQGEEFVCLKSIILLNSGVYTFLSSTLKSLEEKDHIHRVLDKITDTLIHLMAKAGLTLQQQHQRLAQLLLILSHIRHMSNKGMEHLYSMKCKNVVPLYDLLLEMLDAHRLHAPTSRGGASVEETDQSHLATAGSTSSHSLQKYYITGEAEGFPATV
- assay_procedure: ER degradation in MCF-7 cells (Western blot)
- Type: cell-based
- condition_set: ER degradation, 24 hours
measurement_type: DC50

| compound | measurement_type | result |
| --- | --- | --- |
| CC/C(=C(/c1ccc(B(O)O)cc1)c1ccc(C2CCN(CCCN3CCN(c4ccc5c(c4)CN(C4CCC(=O)NC4=O)C5=O)CC3)CC2)cc1)c1ccccc1 (centres unmarked) | DC50 | < 0.01 µM |
| CC/C(=C(/c1ccc(OCCN2CCN(C(=O)N3CCN(c4ccc5c(c4)CN([C@@H]4CCC(=O)NC4=O)C5=O)CC3)CC2)cc1)c1ccc(B(O)O)cc1)c1ccccc1 | DC50 | < 0.01 µM |
| CC/C(=C(/c1ccc(OCCN2CCN(C(=O)N3CCC(CN4CCN(c5ccc6c(c5)CN(C5CCC(=O)NC5=O)C6=O)CC4)CC3)CC2)cc1)c1ccc(B(O)O)cc1)c1ccccc1 (centres unmarked) | DC50 | < 0.01 µM |
| CC/C(=C(\c1ccc(OCCN2CCN(C(=O)N3CCN(c4ccc5c(c4)CN([C@@H]4CCC(=O)NC4=O)C5=O)CC3)CC2)cc1)c1ccc(B(O)O)cc1)c1ccccc1 | DC50 | < 0.01 µM |
| CC/C(=C(/c1ccc(OCCCCCN2CCN(c3ccc4c(c3)CN(C3CCC(=O)NC3=O)C4=O)CC2)cc1)c1ccc(B(O)O)cc1)c1ccccc1 (centres unmarked) | DC50 | 0.01 to 0.05 µM |
| CC/C(=C(\c1ccc(B(O)O)cc1)c1ccc(N2CCC(CN3CCN(c4ccc5c(c4)C(=O)N(C4CCC(=O)NC4=O)C5=O)CC3)CC2)cc1)c1ccccc1 (centres unmarked) | DC50 | 0.01 to 0.05 µM |

Fill blank: measured DC50 of the compound CC/C(=C(/c1ccc(B2OC(C)(C)C(C)(C)O2)cc1)c1ccc(N2CCC(CCN3CCN(c4ccc5c(c4)CN(C4CCC(=O)NC4=O)C5=O)CC3)CC2)cc1)c1ccccc1 (centres unmarked) is ____. 0.01 to 0.05 µM

Fill blank: measured DC50 of the compound CC/C(=C(\c1ccc(B(O)O)cc1)c1ccc(N2CCN(CCCN3CCN(c4ccc5c(c4)C(=O)N(C4CCC(=O)NC4=O)C5=O)CC3)CC2)cc1)c1ccccc1 (centres unmarked) is ____. < 0.01 µM

Fill blank: measured DC50 of the compound CC/C(=C(/c1ccc(O)cc1)c1ccc(N2CCN(C(=O)N3CCN(c4ccc5c(c4)CN([C@@H]4CCC(=O)NC4=O)C5=O)CC3)CC2)cc1)c1ccccc1 is ____. < 0.01 µM

Fill blank: measured DC50 of the compound CC/C(=C(\c1ccc(O)cc1)c1ccc(OCCN2CCN(C(=O)N3CCN(c4ccc5c(c4)CN([C@H]4CCC(=O)NC4=O)C5=O)CC3)CC2)cc1)c1ccccc1 is ____. < 0.01 µM

Fill blank: measured DC50 of the compound CC/C(=C(/c1ccc(OCCN2CCC(CN3CCN(c4ccc5c(c4)CN([C@H]4CCC(=O)NC4=O)C5=O)CC3)CC2)cc1)c1ccc(B(O)O)cc1)c1ccccc1 is ____. < 0.01 µM
